assay name: Biodistribution of radiotracers in normal mice
Format: in vivo, mouse
test conditions: normal male mice, 120 min
Assign labels as follows, please: Y for Biodistribution: Blood below 0.2 % dose/g; N for Biodistribution: Blood equal to or exceeding 0.2 % dose/g.

O=C(O)CC[C@H](NC(=O)N[C@@H](CCCCNC(=O)CCCCCNC(=O)CCc1ccc2c(c1)C[N+]13CC[N+]45CC(=O)[O][68Ga-3]14([O]C(=O)C3)([O]2)[O]c1ccc(CCC(=O)NCCNC(=O)CN2CCN(CC(=O)O)CCN(CC(=O)O)CCN(CC(=O)O)CC2)cc1C5)C(=O)O)C(=O)O (stereo partly drawn) [[^68Ga]1g] : N
O=C(O)CCc1ccc2c(n1)C[N+]13CC[N+]45CC(=O)[O][68Ga-3]14([O]C(=O)C3)([O]2)[O]c1ccc(CCC(=O)NCCCCCC(=O)NCCCC[C@H](NC(=O)N[C@@H](CCC(=O)O)C(=O)O)C(=O)O)nc1C5 (stereo partly drawn) [[^68Ga]2] : N
O=C(O)CCc1ccc2c(c1)C[N+]13CC[N+]45CC(=O)[O][68Ga-3]14([O]C(=O)C3)([O]2)[O]c1ccc(CCC(=O)NCCCCCC(=O)NCCCC[C@H](NC(=O)N[C@@H](CCC(=O)O)C(=O)O)C(=O)O)cc1C5 (stereo partly drawn) [[^68Ga]1a, reference compound] : Y
O=C(O)CC[C@H](NC(=O)N[C@@H](CCCCNC(=O)CCCCCNC(=O)CCc1ccc2c(n1)C[N+]13CC[N+]45CC(=O)[O][68Ga-3]14([O]C(=O)C3)([O]2)[O]c1ccc(CCC(=O)NCCCCCC(=O)NCCCC[C@H](NC(=O)N[C@@H](CCC(=O)O)C(=O)O)C(=O)O)nc1C5)C(=O)O)C(=O)O (stereo partly drawn) [[^68Ga]3] : N

*Q* Here's an entry: O=C(O)CCc1ccc2c(c1)C[N+]13CC[N+]45CC(=O)[O][68Ga-3]14([O]C(=O)C3)([O]2)[O]c1ccc(CCC(=O)NCC(=O)N[C@@H](Cc2ccc(OCC(=O)N[C@@H](Cc3ccccc3)C(=O)NCCCC[C@H](NC(=O)N[C@@H](CCC(=O)O)C(=O)O)C(=O)O)cc2)C(=O)O)cc1C5 (stereo partly drawn) [[^68Ga]5b] . Is its Biodistribution: Blood below 0.2 % dose/g?
*A* N

====

assay name: Biodistribution of radiotracers in normal mice
Assay type: in vivo, mouse
test conditions: normal male mice, 2 min
Listed next: entries and their corresponding Biodistribution: Skin.
Could you give me the number in % dose/g? Just the number is fine.

O=C(O)CC[C@H](NC(=O)N[C@@H](CCCCNC(=O)CCCCCNC(=O)CCc1ccc2c(c1)C[N+]13CC[N+]45CC(=O)[O][68Ga-3]14([O]C(=O)C3)([O]2)[O]c1ccc(CCC(=O)N[C@@H](CC(=O)O)C(=O)O)cc1C5)C(=O)O)C(=O)O (stereo partly shown) [[^68Ga]1e] : 2.46
O=C(O)CCc1ccc2c(c1)C[N+]13CC[N+]45CC(=O)[O][68Ga-3]14([O]C(=O)C3)([O]2)[O]c1ccc(CCC(=O)NCCCCCC(=O)NCCCC[C@H](NC(=O)N[C@@H](CCC(=O)O)C(=O)O)C(=O)O)cc1C5 (stereo partly shown) [[^68Ga]1a, reference compound] : 2.42
O=C(O)CCc1ccc2c(n1)C[N+]13CC[N+]45CC(=O)[O][68Ga-3]14([O]C(=O)C3)([O]2)[O]c1ccc(CCC(=O)NCCCCCC(=O)NCCCC[C@H](NC(=O)N[C@@H](CCC(=O)O)C(=O)O)C(=O)O)nc1C5 (stereo partly shown) [[^68Ga]2] : 3.07

Let us examine a further case.
*Q* Please give the measured Biodistribution: Skin for this molecule: O=C(O)CC[C@H](NC(=O)N[C@@H](CCCCNC(=O)CCCCCNC(=O)CCc1ccc2c(n1)C[N+]13CC[N+]45CC(=O)[O][68Ga-3]14([O]C(=O)C3)([O]2)[O]c1ccc(CCC(=O)NCCCCCC(=O)NCCCC[C@H](NC(=O)N[C@@H](CCC(=O)O)C(=O)O)C(=O)O)nc1C5)C(=O)O)C(=O)O (stereo partly shown) [[^68Ga]3]
*A* 2.63
